- Assayed system: DAPK1 (human) (UniProt P53355)
- Sequence (P53355 whole entry, looked up): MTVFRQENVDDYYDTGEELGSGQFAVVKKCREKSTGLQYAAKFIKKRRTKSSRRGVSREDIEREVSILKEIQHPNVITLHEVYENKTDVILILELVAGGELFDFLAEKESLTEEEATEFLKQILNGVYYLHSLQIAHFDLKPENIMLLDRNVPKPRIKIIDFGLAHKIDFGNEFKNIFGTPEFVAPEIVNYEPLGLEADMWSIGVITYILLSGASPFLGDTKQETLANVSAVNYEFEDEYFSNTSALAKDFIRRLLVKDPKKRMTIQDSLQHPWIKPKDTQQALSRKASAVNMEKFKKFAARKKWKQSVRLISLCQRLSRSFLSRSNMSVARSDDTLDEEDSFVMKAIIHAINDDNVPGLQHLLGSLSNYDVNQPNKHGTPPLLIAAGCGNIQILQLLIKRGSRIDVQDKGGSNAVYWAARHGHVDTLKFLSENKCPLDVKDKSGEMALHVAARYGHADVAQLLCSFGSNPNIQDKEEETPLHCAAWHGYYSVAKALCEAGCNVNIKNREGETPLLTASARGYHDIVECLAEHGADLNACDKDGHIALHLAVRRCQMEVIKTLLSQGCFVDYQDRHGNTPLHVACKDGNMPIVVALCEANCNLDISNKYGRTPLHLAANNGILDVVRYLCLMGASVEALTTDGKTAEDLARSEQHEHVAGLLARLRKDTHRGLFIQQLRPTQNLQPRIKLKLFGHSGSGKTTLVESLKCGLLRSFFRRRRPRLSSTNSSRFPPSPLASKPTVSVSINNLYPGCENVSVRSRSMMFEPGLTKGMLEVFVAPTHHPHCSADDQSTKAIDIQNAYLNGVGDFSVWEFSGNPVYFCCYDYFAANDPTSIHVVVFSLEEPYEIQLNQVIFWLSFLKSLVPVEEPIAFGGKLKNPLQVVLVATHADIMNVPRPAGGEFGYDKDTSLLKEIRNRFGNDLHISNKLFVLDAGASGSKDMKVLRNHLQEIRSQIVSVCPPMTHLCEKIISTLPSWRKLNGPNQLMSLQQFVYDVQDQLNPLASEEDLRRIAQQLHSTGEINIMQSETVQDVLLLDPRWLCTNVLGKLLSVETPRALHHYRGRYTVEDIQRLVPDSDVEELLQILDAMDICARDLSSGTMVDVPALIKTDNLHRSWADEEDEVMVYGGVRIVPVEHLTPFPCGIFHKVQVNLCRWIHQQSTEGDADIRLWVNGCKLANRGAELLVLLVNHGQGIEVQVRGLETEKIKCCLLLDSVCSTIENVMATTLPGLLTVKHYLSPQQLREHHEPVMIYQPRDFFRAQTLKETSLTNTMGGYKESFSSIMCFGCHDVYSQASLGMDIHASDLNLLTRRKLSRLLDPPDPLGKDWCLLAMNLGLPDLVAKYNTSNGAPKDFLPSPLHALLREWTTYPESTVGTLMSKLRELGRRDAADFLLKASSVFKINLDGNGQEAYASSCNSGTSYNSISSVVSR
- Method summary: radiometric filter-binding kinase assay, Kinase HotSpot
- Run conditions: compound 0.5 µM; ATP 10 µM
Listing: residual activity of selected compounds
Readout name: residual activity (%)

{"columns": ["Compound", "Observed"],
 "data": [
  ["CC(=O)c1ccc(N2CCOCC2)cc1O", 92.8],
  ["CCN(CC)C(=O)c1ccc(Nc2nc(OCC3CCCCC3)c3nc[nH]c3n2)cc1", 81.6],
  ["CCN(CC)CCNC(=O)c1c(C)[nH]c(/C=C2\\C(=O)Nc3ccc(Cl)cc32)c1C", 47.7],
  ["O=C1Nc2ccc(Cl)cc2/C1=C/c1cc(Cl)c(O)c(Cl)c1", 90],
  ["Cc1ccc(S(=O)(=O)/C=C/C#N)cc1", 100],
  ["CCN(CC)CCNC(=O)c1c(C)[nH]c(/C=C2\\C(=O)Nc3ccc(F)cc32)c1C", 66.9],
  ["CC[n+]1c(/C=C/N(C)c2ccccc2)n(-c2ccccc2)c2ccc(-c3nc4ccccc4s3)cc21", 74.7],
  ["N#CC(C#N)=C(N)/C(C#N)=C/c1ccc(O)cc1", 92.7],
  ["Nc1ncnc2[nH]nc(Nc3ccc(F)cc3)c12", 116],
  ["CNC(=O)c1cc(Oc2ccc(NC(=O)Nc3ccc(Cl)c(C(F)(F)F)c3)cc2)ccn1", 101],
  ["Nc1cccc(-c2cc3c(Oc4cccc(O)c4)ncnc3[nH]2)c1", 89.1],
  ["CC(C)N(CCC(=O)c1ccc2ccccc2c1)Cc1ccccc1", 97.9],
  ["CO[C@H]1CC2CC[C@@H](C)[C@@](O)(O2)C(=O)C(=O)N2CCCC[C@H]2C(=O)OC([C@H](C)C[C@@H]2CC[C@@H](O)[C@H](OC)C2)CC(=O)[C@H](C)/C=C(\\C)[C@@H](O)[C@@H](OC)C(=O)[C@H](C)C[C@H](C)/C=C/C=C/C=C/1C (some centres not stated)", 88.5],
  ["Oc1cccc(-c2nc(N3CCOCC3)c3oc4ncccc4c3n2)c1", 78],
  ["O=S(=O)(c1cccc2cnccc12)N1CCCNCC1", 79],
  ["CNc1cc2c(Nc3cccc(Br)c3)ncnc2cn1", 80.5],
  ["CC#CC(=O)Nc1cc2c(Nc3ccc(F)c(Cl)c3)ncnc2cn1", 94.7],
  ["COc1cc2ncnc(Nc3cccc(Cl)c3)c2cc1OC", 108],
  ["c1ccc(-c2n[nH]cc2-c2ccnc3ccccc23)nc1", 111],
  ["Nc1ncnc2c1c(-c1ccc(Oc3ccccc3)cc1)cn2C1CCCC1", 79.1],
  ["N#C/C(=C(/N)Sc1ccc(N)cc1)c1ccccc1C(F)(F)F", 104],
  ["O=C1NC(=O)c2c1c1c3ccccc3n3c1c1c2c2ccccc2n1C1CCC3O1", 32.7]
]}

###

- Assayed system: CDK1 CCNB1 (human) (UniProt P06493+P14635)
- Sequence (P06493 whole entry, looked up): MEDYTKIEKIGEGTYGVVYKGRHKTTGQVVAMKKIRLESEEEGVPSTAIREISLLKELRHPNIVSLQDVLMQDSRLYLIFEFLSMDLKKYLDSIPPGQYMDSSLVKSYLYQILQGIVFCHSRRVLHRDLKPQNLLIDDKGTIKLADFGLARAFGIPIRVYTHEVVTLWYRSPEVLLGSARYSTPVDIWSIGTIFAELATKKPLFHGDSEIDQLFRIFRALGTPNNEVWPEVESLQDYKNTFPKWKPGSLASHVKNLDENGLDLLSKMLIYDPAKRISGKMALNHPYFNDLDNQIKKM
- Sequence (P14635 whole entry, looked up): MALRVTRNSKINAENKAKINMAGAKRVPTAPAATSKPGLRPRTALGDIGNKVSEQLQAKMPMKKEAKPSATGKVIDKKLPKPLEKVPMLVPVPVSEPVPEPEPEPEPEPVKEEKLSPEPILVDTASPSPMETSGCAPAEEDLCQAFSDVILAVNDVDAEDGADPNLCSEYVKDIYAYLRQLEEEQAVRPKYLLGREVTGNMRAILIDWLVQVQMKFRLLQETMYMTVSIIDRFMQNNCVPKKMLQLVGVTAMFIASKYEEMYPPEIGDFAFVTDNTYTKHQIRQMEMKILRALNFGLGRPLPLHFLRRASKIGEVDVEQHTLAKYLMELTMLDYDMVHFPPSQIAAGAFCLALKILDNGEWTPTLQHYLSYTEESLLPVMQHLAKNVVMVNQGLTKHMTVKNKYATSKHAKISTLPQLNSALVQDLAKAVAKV
- Method summary: radiometric filter-binding kinase assay, Kinase HotSpot
- Run conditions: compound 0.5 µM; ATP 10 µM
Listing: residual activity of selected compounds

{"columns": ["Compound string", "residual activity, %"],
 "data": [
  ["CC#CC(=O)Nc1cc2c(Nc3ccc(F)c(Cl)c3)ncnc2cn1", 99.5],
  ["O=C1NC(=O)C(c2cn(CCCn3ccnc3)c3ccccc23)=C1Nc1ccccc1", 84.9],
  ["CCCC(=O)Oc1ccc2[nH]c(C(=O)c3cc4ccccc4[nH]3)cc2c1", 106],
  ["Cc1ccc(Nc2nccc(N(C)c3ccc4c(C)n(C)nc4c3)n2)cc1S(N)(=O)=O", 99.6],
  ["Nc1cccc(-c2cc3c(Oc4cccc(O)c4)ncnc3[nH]2)c1", 98.9],
  ["Nc1ncnc2[nH]nc(Nc3ccc(F)cc3)c12", 90.7],
  ["CC(C)N(CCC(=O)c1ccc2ccccc2c1)Cc1ccccc1", 104],
  ["CCN(CC)CCNC(=O)c1c(C)[nH]c(/C=C2\\C(=O)Nc3ccc(Cl)cc32)c1C", 109],
  ["Cc1nc(Nc2ncc(C(=O)Nc3c(C)cccc3Cl)s2)cc(N2CCN(CCO)CC2)n1", 93.9],
  ["Cc1[nH]c(/C=C2\\C(=O)Nc3ccc(S(=O)(=O)N(C)c4cccc(Cl)c4)cc32)c(C)c1C(=O)N1CCN(C)CC1", 101],
  ["Cc1ccc(NC2=CC(=O)c3sc(C)nc3C2=O)cc1", 69.7]
]}
